Values compiled from PubChem BioAssay (NCI).

Catalogue of TGI readings, one per entry.
# System: HOP-62 NSCLC
# protocol_notes: NCI tumour cell line growth inhibition, 48 h

INSERT INTO measurements (compound, assay_metric, recorded_value) VALUES
  ('Cc1cc2c3c(ccc4ncc(c43)CN2c2ccc(NS(C)(=O)=O)cc2)[nH]1', 'TGI', '46.1 µM'),
  ('CCOC(=O)C(=Cc1ccc(Br)cc1)C(=O)OCC', 'TGI', '5.47 µM'),
  ('COc1ccc(OC)c(C2CCc3cnc4nc(N)nc(N)c4c3C2)c1 (stereo unspecified)', 'TGI', '> 100 µM'),
  ('Cn1cc(-c2ccc(CCOC3CCCCO3)cc2)c2c(C#N)cccc21 (stereo unspecified)', 'TGI', '> 100 µM'),
  ('C(/COc1cccnc1)=N\NC1=NCCN1', 'TGI', '> 100 µM');

Returns the measured TGI for the input compound. Input: N/C(=N\C(=S)N1CCCCC1)N1CCCCC1
> 100 µM

Continue with CCCCNc1nc(SC)nc2nc[nH]c12
> 100 µM

Here is the next compound: CCCCCCCCCCCCCCCCCC(=O)NCCCNCCCNC(=O)CCCCCCCCCCCCCCCCC
> 100 µM

Follow-up item: COC(=O)C(C(=O)C(=O)Nc1ccccc1OC)c1csc(-n2nc(-c3ccccc3)cc2-c2ccccc2)n1 (stereo unspecified)
> 100 µM

Same thing, different compound: Cc1ccc(C(=O)/C=C/c2ccccc2Cl)cc1
> 100 µM

Next up: Nc1ccc(-c2ccc(-c3nc4ccccc4[nH]3)cc2)cc1
56.6 µM

====

# System: SK-MEL-28 melanoma
# protocol_notes: NCI tumour cell line growth inhibition, 48 h
assay_metric: TGI

Worked cases, answers included:
INSERT INTO results (compound, assayed_system, recorded_value) VALUES
  ('C=C(C)C1CC[C@]2(C(=O)O)CCC3(C)[C@H](CCC4[C@@]5(C)CC[C@H](OC6OC(CO)C(O)C6OC6OC(C)C(O)C(O)C6O)[C@@](C)(CO)C5CC[C@]43C)C12 (some centres not stated)', 'SK-MEL-28 melanoma', '> 100 µM'),
  ('O=S(=O)(Nc1ccc(Cl)c(C(F)(F)F)c1)c1ccc(-c2cnc(C3CC3)o2)cc1', 'SK-MEL-28 melanoma', '5.79 µM'),
  ('CNC(=O)N(CCC#N)CCN(CCN(C(=O)NC)c1ccccc1)C(=O)NC', 'SK-MEL-28 melanoma', '> 100 µM'),
  ('CCN(C)S(=O)(=O)Nc1cccc(Nc2ncnc3cc(NC(=O)CCl)ccc23)c1Cl', 'SK-MEL-28 melanoma', '15.8 µM'),
  ('CC1C(c2ccccc2O)c2cc3c(cc2OC1N1CCCC1)OCO3 (configuration not stated)', 'SK-MEL-28 melanoma', '46.6 µM');

GET /values?readout=TGI&item= Cc1ccccc1NC(=O)C(=O)Cc1nc2ccccc2s1
> 100 µM

Subsequent entry: Nc1cc(C(F)F)c(-c2nc(N3[C@@H]4CC[C@H]3COC4)nc(N3[C@@H]4CC[C@H]3COC4)n2)cn1
2.92 µM

Now this one: CNC(Cc1ccccc1)c1cccc(OC)c1O (configuration not stated)
> 100 µM

Follow-up item: C[C@H](CCc1nc(C#N)c(N)o1)[C@H]1CC[C@H]2[C@@H]3[C@@H](O)CC4C[C@@H](O)CC[C@]4(C)[C@H]3C[C@@H](O)[C@]12C (some centres not stated)
47.2 µM

====

# System: NCI-H460 lung
# protocol_notes: NCI tumour cell line growth inhibition, 48 h
Measured TGI of individual entries
Entry rule: numbers only, all in µM.

In the examples that follow, each entry is paired with its recorded TGI.
INSERT INTO results (compound, recorded_value) VALUES
  ('O=C(O)/C(O)=C1/C=C(c2ccccc2)c2ccccc21', 62.7),
  ('O=C(C#Cc1c[nH]c(=O)[nH]c1=O)c1ccccc1', 28.6);

Consider the record given below.
Consider the compound shown here: CC(C)(C)C1CCC2c3c([nH]c4ccccc34)C3C(=O)N(c4ccc(Br)cc4)C(=O)C3C2C1 (configuration not stated) What is its recorded TGI?
38.9

====

# Tested on: ACHN renal
# protocol_notes: NCI tumour cell line growth inhibition, 48 h
assay_metric: TGI

INSERT INTO results (compound, assayed_system, assay_metric, recorded_value) VALUES
  ('CC1=COC2=C(C)C(=O)C(=O)c3c(C)ccc1c32', 'ACHN renal', 'TGI', '29.5 µM');

I would be grateful if you could share the reported TGI for O=C(Nc1ccc(-n2cc(-c3ccncc3)c(-c3ccc(Cl)c(O)c3)n2)cc1)c1cc(Cl)cc(Cl)c1 .
> 100 µM

Field entry: c1ccc(C2CC(N3CCOCC3)=Nc3ccccc3N2)cc1 (stereo not given)
> 100 µM

Entry c1ccc(-c2cc(-c3cc(-c4ccccn4)[nH]n3)n[nH]2)nc1 please
> 100 µM

Next compound: CC(C)NC(C)Cc1ccccc1 (stereo not given)
> 100 µM

Next record, please: O=C(O)/C(=C\c1ccccc1)Cc1ccccc1
> 100 µM

Also, CC(=O)Oc1ccc(-c2cc3ccccc3oc2=O)cc1OC(C)=O please.
> 100 µM

Further, for C#C[C@]1(O)CC[C@H]2[C@@H]3CC=C4c5nc(Nc6ccc(OC)cc6OC)sc5CC[C@]4(C)[C@H]3CC[C@@]21C ?
10.2 µM

Field entry: CC(=O)O[C@H]1CCC2[C@@H]3CCC4C(=O)c5oncc5C[C@]4(C)C3CC[C@@]21C (stereo not given in full)
> 100 µM

Also, C=C1C(=O)C=C2C=C3C(=O)C(C)(C)C[C@]3(O)C12C (stereo not given in full) please.
4.53 µM

====

# System: EKVX NSCLC
# protocol_notes: NCI tumour cell line growth inhibition, 48 h
Attribute: TGI
Could you give me the number in µM? Just the number is fine.

INSERT INTO results (compound, recorded_value) VALUES
  ('C/C=C(/C)C(=O)OC1C=C(CO)C(=O)C(OC(=O)/C(C)=C\C)C1C(C)C (stereo unspecified)', 3.22),
  ('O=C(Nc1cc(C(F)(F)F)ccc1Cl)C(=O)C(C(=O)c1ccc2ccccc2c1)C1OC(=O)c2ccccc21 (stereo unspecified)', 34.8);

If you can, please state the reported TGI value of CCOC(=O)c1c(C)c2c(n1C)CSc1cc(S(=O)(=O)c3ccccc3)c(=O)[nH]c1-2 .
74.9

Thanks! And O=C1/C(=C\c2ccccc2)c2ccccc2N1Cc1ccccc1 ?
17.1

Can you check COC(=O)c1c2c(c(C)[n+]([O-])c1C)C(=O)C(NCc1ccc(F)c(Cl)c1)=CC2=O next?
5.18

And then O=C(c1cccs1)c1c(C(F)(F)F)n([O-])c2cc(F)c(F)cc2[n+]1=O , what is it?
6.73

Item: O=C1c2cccc3c(N4CCN(c5ccc6c7c(cccc57)C(=O)N(CCN5CCNCC5)C6=O)CC4)ccc(c23)C(=O)N1CCN1CCNCC1
47.1

Then COC(=O)[C@]1(c2cc3ccccc3n2S(=O)(=O)c2ccccc2)CC2CCC1NC2 (stereo partly specified) ?
30.1

Try this compound too: C=C1CC2(OC1=O)c1ccccc1CCc1ccccc12
20.3

====

# Test system: HCT-116 colon
# protocol_notes: NCI tumour cell line growth inhibition, 48 h
The following compounds are listed with their measured TGI values.

Here's what some known entries look like.
INSERT INTO measurements (compound, recorded_value) VALUES
  ('N/C(=N\C(=S)N1CCCCC1)N1CCCCC1', '> 100 µM'),
  ('CC(C)OCN1COCN=C1NC#N', '> 100 µM'),
  ('O=C(N/N=C/c1cc2ccccc2c2ccccc12)c1cc(O)c(O)c(O)c1', '12.4 µM'),
  ('Cc1cc(S(=O)(=O)Nc2nc(N)n(C)n2)c(S)cc1Cl', '> 10 µM');

TGI for C[n+]1c2ccccc2c(NC(CCC(N)=O)C(=O)O)c2ccccc21 (stereo not given) ?
> 100 µM

====

# Test system: NCI-H23 lung
# protocol_notes: NCI tumour cell line growth inhibition, 48 h
Tag: condition met if measured TGI is not below 30 µM, condition not met if it is.

Reference set, count: 6
INSERT INTO assay_data (compound, discrete_label) VALUES
  ('CNC(=O)OCc1nc(S(C)=O)n(C)c1COC(=O)NC (stereo not given)', 'condition met'),
  ('COc1cc(Cn2c3c(c4cc(O)ccc42)C(=O)c2ccccc2C3=O)cc(OC)c1', 'condition met'),
  ('Clc1ccc2c(NCCCN3CCN(c4nc(-n5ccnc5)nc5ccccc45)CC3)ccnc2c1', 'condition met'),
  ('C=CCSc1n[nH]c(-c2cccs2)n1', 'condition met'),
  ('COc1ccc(C2=C(OC(C)=O)c3cccn3-c3ccccc3S2)cc1', 'condition not met'),
  ('CC(=O)OC1CC(OC2C(O)CC(OC3C(O)CC(OC4CCC5(C)C(CCC6C5CC(O)C5(C)C(C7=CC(=O)OC7)CCC65O)C4)OC3C)OC2C)OC(C)C1O (stereo not given) (tested in a mixture with another compound)', 'condition not met');

Dear colleague, could you confirm whether CN1N=C(c2ccncc2)OC1c1ccc(Cl)c(Cl)c1 (stereo not given) has TGI at or above 30 µM?
condition met

Query C=CCC1(O)c2cccc(O)c2C(=O)c2c(O)cccc21 next
condition met

What do we get for O=C(c1cccs1)c1c(C(F)(F)F)n([O-])c2cc(F)c(F)cc2[n+]1=O ?
condition not met

// query: CC(C)(C)OC(=O)C1/C(=C/CO)CN1C(=O)OC(C)(C)C (stereo not given)
condition met
